- ASSAY_NAME: Aqueous solubility in PBS solution
- Type: physicochemical
- CONDITION: aqueous buffer, PBS, read-out: Solubility
- Description: Compound 1593 is synthesized according to Scheme 42. The aqueous solubility of compound 1593 and its counterpart structure without carboxylic acid substitutent, compound 1594, is shown in Table 18. Without the carboxylic acid substitutent, compound 1594 merely has a solubility of about 0.1 mg/mL in PBS solution.
ENDPOINT_NAME: solubility (µg/mL)
Hi! Could you send only the number? It should be in µg/mL, unit omitted.

stdin: So what's the measured solubility for this one? COc1ccc(CC[C@H]2OC(=O)[C@@H]3CCCCN3C(=O)C(=O)C(C)(C)COC(=O)/C=C/CCN(C)C(=O)[C@H](CC(C)C)N(C)C(=O)[C@H]3CCCN3C(=O)[C@H](Cc3ccc(OCC(=O)O)cc3)NC(=O)[C@H](c3ccccc3)NC(=O)CCC(=O)Nc3cccc2c3)cc1OC [Compound 1593]
stdout: 3500
